assay_target: T1, human PACAP27 (human, C-terminal leucine is amidated; 125I-labelled in Example 10)
T1 peptide: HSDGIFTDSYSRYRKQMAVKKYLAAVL
experiment_summary: SPR, Ab immobilised
property: koff

{"binder": "anti-PACAP antibody Ab2 (antibody, human IgG1, kappa, N297A, V domains shown, full-length rabbit/human chimeric antibody) VH: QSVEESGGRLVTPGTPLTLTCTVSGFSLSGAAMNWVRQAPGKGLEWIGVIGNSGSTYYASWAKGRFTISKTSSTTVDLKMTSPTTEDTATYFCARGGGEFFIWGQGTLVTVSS VL: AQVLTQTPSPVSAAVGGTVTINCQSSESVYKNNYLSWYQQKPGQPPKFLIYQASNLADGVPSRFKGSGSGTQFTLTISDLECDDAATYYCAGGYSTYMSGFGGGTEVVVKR", "recorded_value": "≤ 1e-05 s⁻¹"}

Please look at the following binder next.
Supply koff value. Item: anti-PACAP antibody Ab18 (antibody, human IgG1, kappa, N297A, V domains shown, full-length rabbit/human chimeric antibody) VH: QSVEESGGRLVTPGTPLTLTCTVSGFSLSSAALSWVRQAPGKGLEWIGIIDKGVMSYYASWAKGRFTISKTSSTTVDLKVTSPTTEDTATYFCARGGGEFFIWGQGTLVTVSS VL: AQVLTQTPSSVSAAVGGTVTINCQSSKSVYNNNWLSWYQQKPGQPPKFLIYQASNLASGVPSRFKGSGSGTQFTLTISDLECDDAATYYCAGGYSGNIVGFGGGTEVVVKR
≤ 1e-05 s⁻¹
